# TARGET OR SYSTEM: TDP-43 (Homo sapiens, UniProt Q13148 1-414)
# Sequence (Q13148 whole entry): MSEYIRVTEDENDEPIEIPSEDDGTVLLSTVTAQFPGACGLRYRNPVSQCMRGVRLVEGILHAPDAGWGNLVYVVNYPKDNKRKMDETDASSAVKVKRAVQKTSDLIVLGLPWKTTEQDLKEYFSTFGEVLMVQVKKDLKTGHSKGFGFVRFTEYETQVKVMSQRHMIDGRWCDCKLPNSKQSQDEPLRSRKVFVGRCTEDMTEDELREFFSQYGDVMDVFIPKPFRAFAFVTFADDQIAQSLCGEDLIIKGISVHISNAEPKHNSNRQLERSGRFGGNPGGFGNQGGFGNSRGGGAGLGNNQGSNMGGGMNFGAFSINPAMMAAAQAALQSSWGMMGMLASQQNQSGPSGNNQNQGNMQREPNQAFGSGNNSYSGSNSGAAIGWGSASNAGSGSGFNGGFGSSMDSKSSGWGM
# ASSAY EXPLANATION: RNA Bind-n-Seq with designed 260-mer pool; 25 mM Tris-HCl, 150 mM KCl, 3 mM MgCl2, BSA (printed 500 mg/mL), 20 units/mL SUPERase IN; pH not stated; 500 nM RNA pool, 1 h, 4 C; TDP-43 5, 50, 500 nM; high values mean tight binding
# RUN CONDITIONS: protein: recombinant; tags: SBP (GST cleaved off with PreScission; pGEX-GST-SBP)
The full ranking holds about 9,900 sequences; the median of “r (bound/input frequency ratio)” is about 0.7, and the highest 2% start at about 6.5. This excerpt belongs to a sample that is enriched for the highest values.
MEASUREMENT TYPE: binding signal

Value of measured binding signal for the entry ENSMUSG00000004113.196|Cacna1b (ssRNA) RNA: GGGAGUUCUACAGUCCGACGAUCGCUUCGAUAUCCGCAUGCUACUGGCUCCUCUGCUCAACCAAGUGCCUGAUCUCUGGCUCUGAGCAUCGUGGAUGAGGUACGGCCUCAGGAAGCAUCGGGUGGAUUGGGUGGGAGCUGCUCAGAGCAGCACGGGGGCUUGUGUCUUAGGGACAUUGACAGUGUCCAUCAGCAUGUCAGAGAAGCAGCUGUAGUGCCCGUGUUUCUCCCUGAGUCAUGGGUUCUGAAGAAGCCAGAGCGGCACAAUGCGUGCUUGCAUGAGGCACUUUCAGCCUUUUUAAAUCUCUUGCGGUCGCACUAGUGUGGAAUUCUCGGGUGUCAAGG : 1.41 R (bound/input frequency ratio)
